Test system: A549
Test: cells
Conditions: Homo sapiens, A549, 72 h
Description: Cytotoxicity against human A549 cells after 72 hrs by MTT assay
Measurement Name: log10 IC50 (log10 of the value in µM)

{"Sample Smiles": "COc1cc2c(cc1C(=O)/C=C/c1cccc(OC)c1OC)SCO2", "log10 IC50": 0.70}
{"Sample Smiles": "COc1ccc(/C=C/C(=O)c2cc3c(cc2OCCN2CCOCC2)OCS3)cc1F", "log10 IC50": 0.63}
{"Sample Smiles": "O=C(/C=C/c1cccc(Cl)c1)c1c(O)ccc2c1SCO2", "log10 IC50": 0.42}
{"Sample Smiles": "COc1ccc(/C=C/C(=O)c2cc3c(cc2OC)OCS3)cc1F", "log10 IC50": -0.49}
{"Sample Smiles": "COc1cc(OC)c(/C=C/C(=O)c2cc3c(cc2OC)OCS3)c(OC)c1", "log10 IC50": -0.51}
{"Sample Smiles": "COc1cc2c(cc1C(=O)/C=C/c1ccc(Cl)cc1)SCO2", "log10 IC50": 0.48}
{"Sample Smiles": "COc1cc2c(cc1C(=O)/C=C/c1cc(OC)c(OC)c(OC)c1)SCO2", "log10 IC50": 0.54}
{"Sample Smiles": "COc1ccc(/C=C/C(=O)c2cc3c(cc2OCCN2CCOCC2)OCS3)cc1OC", "log10 IC50": 0.58}
{"Sample Smiles": "COc1cc2c(cc1C(=O)/C=C/c1ccc(Br)cc1)SCO2", "log10 IC50": 0.49}
{"Sample Smiles": "O=C(/C=C/c1ccccc1)c1c(O)ccc2c1SCO2", "log10 IC50": 0.56}
{"Sample Smiles": "COc1ccc(/C=C/C(=O)c2c(O)ccc3c2SCO3)cc1", "log10 IC50": 1.03}

====

Test system: A549
Assay: cells
Conditions: Homo sapiens, A549, 72 h
Catalogue of compounds with associated IC50

{"Sample Smiles": "COc1ccc(/C=C/C(=O)c2cc3c(cc2OC)OCS3)cc1OC", "Qualifier Operator": "=", "IC50 (µM)": 1.19}
{"Sample Smiles": "COc1cc2c(cc1C(=O)/C=C/c1ccc(O)cc1)SCO2", "Qualifier Operator": "=", "IC50 (µM)": 9.08}
{"Sample Smiles": "COc1cc(/C=C/C(=O)c2cc3c(cc2OCCN2CCOCC2)OCS3)cc(OC)c1OC", "Qualifier Operator": "=", "IC50 (µM)": 2.42}
{"Sample Smiles": "COc1cc(OC)c(/C=C/C(=O)c2cc3c(cc2OCC(=O)O)OCS3)c(OC)c1", "Qualifier Operator": ">", "IC50 (µM)": 10}
{"Sample Smiles": "COc1cc2c(cc1C(=O)/C=C/c1ccc(CCN(C)C)cc1)SCO2", "Qualifier Operator": "=", "IC50 (µM)": 3.4}

====

System: HeLa
Test: cells
Conditions: Homo sapiens, 72 h
Description: Cytotoxicity against human HeLa cells after 72 hrs by MTT assay
pIC50: −log10 of the molar value.
Measurement Name: pIC50

{"Sample Smiles": "COc1cc(/C=C/C(=O)c2cc3c(cc2OCC(=O)O)OCS3)cc(OC)c1OC", "Qualifier Operator": "<", "Numeric Readout": 5.00}
{"Sample Smiles": "COc1ccc(/C=C/C(=O)c2c(O)ccc3c2SCO3)cc1F", "Qualifier Operator": "=", "Numeric Readout": 5.16}
{"Sample Smiles": "O=C(/C=C/c1cccc(Cl)c1)c1c(O)ccc2c1SCO2", "Qualifier Operator": "=", "Numeric Readout": 5.70}
{"Sample Smiles": "COc1ccc(/C=C/C(=O)c2cc3c(cc2OCCN2CCOCC2)OCS3)cc1F", "Qualifier Operator": "=", "Numeric Readout": 6.15}
{"Sample Smiles": "COc1cc2c(cc1C(=O)/C=C/c1ccc(Br)cc1)SCO2", "Qualifier Operator": "=", "Numeric Readout": 5.63}
{"Sample Smiles": "COc1ccc(/C=C/C(=O)c2cc3c(cc2OCC(=O)O)OCS3)cc1", "Qualifier Operator": "<", "Numeric Readout": 5.00}
{"Sample Smiles": "COc1cc(OC)c(/C=C/C(=O)c2cc3c(cc2OCC(=O)O)OCS3)c(OC)c1", "Qualifier Operator": "<", "Numeric Readout": 5.00}
{"Sample Smiles": "COc1cc2c(cc1C(=O)/C=C/c1ccc(Cl)cc1)SCO2", "Qualifier Operator": "=", "Numeric Readout": 5.75}
{"Sample Smiles": "COc1cc2c(cc1C(=O)/C=C/c1ccccc1)SCO2", "Qualifier Operator": "=", "Numeric Readout": 5.72}
{"Sample Smiles": "O=C(/C=C/c1ccc(Cl)cc1Cl)c1cc2c(cc1OCCN1CCOCC1)OCS2", "Qualifier Operator": "=", "Numeric Readout": 5.81}
{"Sample Smiles": "COc1cc2c(cc1C(=O)/C=C/c1ccc(O)cc1)SCO2", "Qualifier Operator": "=", "Numeric Readout": 5.49}
{"Sample Smiles": "COc1cc2c(cc1C(=O)/C=C/c1cccc(OC)c1OC)SCO2", "Qualifier Operator": "=", "Numeric Readout": 5.40}
{"Sample Smiles": "COc1cccc2c1C(=O)c1c(O)c3c(c(O)c1C2=O)C[C@@](O)(C(=O)CO)C[C@@H]3O[C@H]1C[C@H](N)[C@H](O)[C@H](C)O1", "Qualifier Operator": "=", "Numeric Readout": 6.81}
{"Sample Smiles": "COc1cc2c(cc1C(=O)/C=C/c1ccc(OCC(=O)O)cc1)SCO2", "Qualifier Operator": "<", "Numeric Readout": 5.00}
{"Sample Smiles": "COc1cc2c(cc1C(=O)/C=C/c1ccc(CCN(C)C)cc1)SCO2", "Qualifier Operator": "=", "Numeric Readout": 5.71}
{"Sample Smiles": "COc1cc2c(cc1C(=O)/C=C/c1cc(OC)c(OC)c(OC)c1)SCO2", "Qualifier Operator": "=", "Numeric Readout": 5.39}
{"Sample Smiles": "COc1cc(OC)c(/C=C/C(=O)c2cc3c(cc2OC)OCS3)c(OC)c1", "Qualifier Operator": "=", "Numeric Readout": 6.82}
{"Sample Smiles": "COc1cc2c(cc1C(=O)/C=C/c1cc(Br)c(OC)c(OC)c1)SCO2", "Qualifier Operator": "=", "Numeric Readout": 5.39}
{"Sample Smiles": "COc1ccc(OC)c(/C=C/C(=O)c2cc3c(cc2OCCN2CCOCC2)OCS3)c1", "Qualifier Operator": "=", "Numeric Readout": 5.62}
{"Sample Smiles": "COc1ccc(/C=C/C(=O)c2cc3c(cc2OCCN2CCOCC2)OCS3)cc1OC", "Qualifier Operator": "=", "Numeric Readout": 5.43}
{"Sample Smiles": "COc1ccc(/C=C/C(=O)c2cc3c(cc2OC)OCS3)cc1", "Qualifier Operator": "=", "Numeric Readout": 6.96}
